Test system: NCI-H522 lung
Experiment: NCI tumour cell line growth inhibition, 48 h; in the data active = GI50 below about 0.43 µM; inactive = the rest
Classes used: TRUE (active), FALSE (inactive)

molecule	discreteLabel
CCSc1nc(N)c(C#N)c(-c2ccc(OC)c(OC)c2)c1C#N	FALSE
COc1cc2c3c(n(CCCN=[N+]=[N-])c(=O)c2cc1OC)-c1ccc(NC(C)=O)cc1C3=O	FALSE
Fc1cccc(-c2nc(-c3c[nH]c4ncccc34)cs2)c1	FALSE
O=C1Nc2cc(-c3ccc(O)cc3)ccc2/C1=C/c1ccc[nH]1	TRUE
NC(N)=N/N=C/c1c(-c2cccs2)nc2n1CCS2	FALSE

----------
Tested on: HCT-116 colon
Assay: NCI tumour cell line growth inhibition, 48 h
Record True whenever TGI is at 10 µM or higher; record False when lower.

molecule	discreteLabel
C/C=C/C(O)P(=O)(OC)OC (stereo not given)	False
Oc1ccc(Cl)cc1C1=Nn2c(COc3ccc4c(c3)CCCC4)nnc2SC1	True
CCSc1nc(N)c(C#N)c(-c2ccc(OC)c(OC)c2)c1C#N	True
Clc1ccc(C2=Cc3nc2c(-c2ccccc2)c2ccc([nH]2)c(-c2ccccc2)c2nc(c(-c4ccccc4)c4ccc([nH]4)c3-c3ccccc3)C=C2)cc1	True
NCCNc1nc2ccc(F)cc2c2c(=O)c3cc(F)ccc3sc12	False
O=C1c2ccccc2-c2c1c1ccc([N+](=O)[O-])cc1c(=O)n2CCN1CCOCC1	True
Clc1cccc(/C=c2\nc(-c3ccccc3)n3c2nc2ccccc23)c1	True
O=C1Nc2cc(-c3ccc(O)cc3)ccc2/C1=C/c1ccc[nH]1	True
COc1cccc(C=C(C#N)C#N)c1OC	True

----------
compounds and their reported TGI
Tested on: A549 NSCLC
Assay: NCI tumour cell line growth inhibition, 48 h
Where a SMILES comes first, the peptide text is derived from it. [ ]: non-standard residue; d: D form. The star is where a group is joined. Hyp = O=C(O)[CH]1C[CH](O)CN1; Cbz = O=C(OCc1ccccc1)*
measuredProperty: TGI

compound	result
NC(=O)CNC(=O)C1CC(O)CN1C(=O)C1CCCN1C(=O)OCc1ccccc1 (stereo not drawn) (Cbz-Pro-[Hyp]-Gly-NH2; configuration not given here)	> 100 µM
CCCCCC/C=C\CCCCCCCCCc1cccc(OC)c1O	> 100 µM
CN(C)c1cccc2c(S(=O)(=O)NCCCNCCN)cccc12	> 100 µM
COC(=O)C(Br)(C(=O)OC)C(Br)C(Br)C(Br)c1ccccc1 (stereo unspecified)	33 µM
COc1ccc(-n2nc(C(=O)NCC(=O)Nc3nc4cc(OC)ccc4s3)c3ccccc3c2=O)cc1	1.51 µM
O=C1C2CCCCC2C(=O)N1n1c(Cc2ccccc2)n[nH]c1=O (stereo unspecified)	> 100 µM

----------
Tested on: SK-MEL-5 melanoma
Experiment: NCI tumour cell line growth inhibition, 48 h
measuredProperty: GI50

compound	result
CCN(CC)CCOc1ccccc1-n1c(C)ccc1-c1ccccc1	12.8 µM
NC(N)=N/N=C/c1c(-c2cccs2)nc2n1CCS2	15.6 µM
Fc1cccc(-c2nc(-c3c[nH]c4ncccc34)cs2)c1	> 100 µM
NC1=CC(=O)C(=O)c2ccccc21	14.7 µM
COc1cc(-c2cn(-c3ccc(F)cc3)c(=O)[nH]2)cc(OC)c1OC	> 100 µM
CCCCc1n(Cc2ccc3ccccc3n2)cc[n+]1Cc1ccc2ccccc2c1	0.559 µM
O=C(/C=C/c1cc(O)ccc1O)c1ccc(Cl)cc1	55 µM
COC(=O)C[C@@H]1CC=CC(=O)/C1=C(O)/C=C/c1ccccc1	1.41 µM
CCN(CC)CCC(CNc1c(C)cnc2cc(Cl)ccc12)c1ccc(Cl)c(Cl)c1 (configuration not stated)	1.82 µM
COc1cc2c3c(n(CCCN=[N+]=[N-])c(=O)c2cc1OC)-c1ccc(NC(C)=O)cc1C3=O	11.2 µM
Cc1ccc(Nn2c(SCC(=O)Nc3nc(-c4ccccc4)cs3)nc(C)c2C)cc1	2 µM
CCN1Cc2c(/C=C/c3ccccc3)nc3ccc(OC)cc3c2N(c2cccc(Cl)c2)C1	1.59 µM

----------
Tested on: HOP-92 NSCLC
Assay: NCI tumour cell line growth inhibition, 48 h
compounds and their reported TGI

compound	valuePrefix	TGI [µM]
COc1ccc(N2C(=O)C3c4[nH]c5ccc(OC)cc5c4C4CCC(c5ccccc5)CC4C3C2=O)cc1 (configuration not stated)	=	35.9
O=C(C[n+]1ccn(CC(OCc2ccc(Cl)cc2Cl)c2ccc(Cl)cc2Cl)c1)c1ccc(F)cc1 (configuration not stated)	=	2.84
CN(C(=O)C12C3(C(=O)O)C4C5(C(=O)O)C3C1(C(=O)O)C5C42C(=O)O)C(C)(C)C (configuration not stated)	>	100
CCCCc1n(Cc2ccc3ccccc3n2)cc[n+]1Cc1ccc2ccccc2c1	=	1.11
NC(CCSCCF)C(=O)O (configuration not stated)	>	100
Cn1c(=O)c2[nH]c(CCS)nc2n(C)c1=O	>	100
CCOC(=O)/C=C(/C(=O)OCC)n1cc(C)c(=O)[nH]c1=O	=	3.72

----------
Tested on: U251 CNS
Experiment: NCI tumour cell line growth inhibition, 48 h

molecule	valuePrefix	TGI, µM
O=C1CCCc2cc3c(cc21)CC1(C3)Cc2cc3c(cc2C1)C(=O)CCC3	=	36.5
COC(=O)[C@]12CC[C@@H](C)[C@H](C)[C@@H]1C1=CC[C@@H]3[C@@]4(C)C(C=O)=C[C@@](C)(COC(=O)c5ccco5)C4=CC[C@@]3(C)[C@]1(C)CC2	=	10.8
CC(NNC(=S)N1CCN(c2ccccn2)CC1)c1cccc[n+]1[O-] (stereo not given)	>	100
OC1CCSc2ccccc21 (stereo not given)	>	100
C[C@@]12[Se]c3ccccc3[C@]1(C)[Se]c1ccccc12	>	100
COc1ccc(C2C(C(=O)O)=C(CO)Oc3cc4c(cc32)OCO4)c(OC)c1 (stereo not given)	>	100
O=C(/C=C/c1cc(O)ccc1O)c1ccc(Cl)cc1	=	51.2
CCC1C[N+]2=C(c3cc(OC)c(OC)cc3CC2)c2c1cc1n2CCc2cc(OC)c(OC)cc2-1 (stereo not given)	=	14.5
CCOC(=O)/C=C(\C(=O)OCC)n1cc(C)c(=O)n(Cc2cn(COCCOC(C)=O)nn2)c1=O	=	37.5
C#C[C@@H](OC(=O)c1ccc([N+](=O)[O-])cc1)[C@@H]1C[C@H]2O[C@@H]([C@H](C/C=C/CC)OC(=O)c3ccc([N+](=O)[O-])cc3)C[C@H]2O1	>	100
CCCCSCCC(N)P(=O)(O)O (stereo not given)	>	100
CCN(CC)CCC(CNc1c(C)cnc2cc(Cl)ccc12)c1ccc(Cl)c(Cl)c1 (stereo not given)	=	5.43
CCOC(=O)COc1cc(-c2ccccc2)nc2cc(F)ccc12	>	100
Nc1ccc(Cc2ccc(N)c(C(=O)O)c2)cc1C(=O)O	>	100
CC(C)=CC1(C)/C(=N\O)C(C)(CC(C)C)C(=O)N1O (stereo not given)	>	100
COc1cc2cc[n+](C)c(Cc3ccc(Oc4cc(Cc5c6cc(OC)c(OC)cc6cc[n+]5C)ccc4OC)cc3)c2cc1OC	>	100
CC1=C(c2ccccc2)CON(c2ccccc2)C1	=	69
O=c1oc2ccccc2c(O)c1Cc1ccccc1Cc1c(O)c2ccccc2oc1=O	>	100
CCC1=C(CC2NCCc3cc(OC)c(OC)cc32)CC2c3ccccc3CCN2C1 (stereo not given)	=	27.6
CC(C)C(=O)/C=C/c1ccc(Cl)cc1Cl	=	25.2

----------
System: UACC-257 melanoma
Assay: NCI tumour cell line growth inhibition, 48 h
measuredProperty: GI50

compound	result
CC1=CC[C@@H]2C(=O)C=CC=C[C@H]12.[C-]#[O+].[C-]#[O+].[C-]#[O+].[Fe]	> 100 µM
COC(=O)C[C@@H]1CC=CC(=O)/C1=C(O)/C=C/c1ccccc1	1.34 µM
COc1ccc(C#CC2=C(Br)C(=O)OC2)cc1	11.9 µM
CS(=O)(=O)Nc1cccc(-c2ccc3ncnc(Nc4cncc(Cl)c4)c3c2)c1	2.08 µM
COc1ccc2c(ccc3oc([N+](=O)[O-])cc32)c1	0.137 µM
COc1ccc(/C=N/C2=NNC(C)(c3ccccc3O)N2C(Cc2c[nH]c3ccccc23)C(=O)O)cc1 (centres undefined)	3.53 µM
Nc1nc(N)c2cc(S(=O)(=O)c3ccccc3)ccc2n1	14.9 µM
C=CC(=O)N1CCC(CNc2ncnc(N)c2-c2ccc(Oc3ccccc3)cc2)CC1	38.5 µM
CCSc1nnc(-c2ccc3ccccc3c2O)n1-c1ccccc1	> 100 µM
O=CCC(O)C(O)C(O)CO (centres undefined)	55.6 µM
COc1ccccc1CNC(=O)/C=C/c1ccc(O)c(O)c1	84.6 µM
CN1CCN(c2ccc(NC(=O)c3cncnc3Nc3ccc4c(ccn4Cc4cccc(F)c4)c3)cc2)CC1	0.68 µM
Nc1ncc(-c2ccc3ncnc(N4CCc5cc(F)c(Cl)cc54)c3c2)cc1C(F)(F)F	2.08 µM
O=C(Oc1c(Cl)c(Cl)c(Cl)c(Cl)c1Cl)C1CCCN1C(=O)OCc1ccccc1 (centres undefined)	4.29 µM
